# Test description: antimalarial activity against Dd2 strain (AID 2302);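 further: 0% = DMSO untreated growth and 100% = chloroquine plus artemisinin killed control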
# Condition description: P. falciparum Dd2 in RBCs, LDH growth readout, 72 h; at 2 µM
Activity calls are given as the source filed them.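 How the source made its calls: active means growth inhibition above 50% at the single 2 µM test dose, taken to imply half-maximal potency below 2 µM; inactive means the rest.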
Your response should consist of one outcome taken from true (1) = active, false (0) = inactive

Recorded results for 4 molecules are shown here.
Could you kindly confirm the outcome this assay logged for CN(Cc1ccc(NC(=O)CCC2CCN(C(=O)/C=C/c3ccc(Cl)c(Cl)c3)CC2)cc1)C1CCOCC1 ?
false (0)

Status in this test for Cc1ccccc1Nc1nc(NCc2ccccc2)nc2ccccc12 ?
false (0)

Dear all, I need the recorded test outcome for COc1ccc(Cl)cc1N1CCN(CCCNC(=O)c2ccc(-c3nc4cc(Cl)c(C)cc4[nH]3)s2)CC1 , thank you.
true (1)

What did the test return for Cc1cc(Oc2ccc(-n3ccnc3)cc2)nc(N2CCN(CCCN3CCCC3)CC2)n1 ?
false (0)

Lab note: next molecule to report on.
Returns: the outcome recorded for CCOCCCn1c(=N)c(C(=O)NC(C)c2ccccc2)cc2c(=O)n3cccc(C)c3nc21 (stereo not given) in this assay.
false (0)
